Entries annotated with measured pKd
# Measured target: T1, EsCas13d, nuclease-dead (Eubacterium siraeum, UniProt B0MS50, R295A;H300A;R849A;H854A)
# T1 sequence: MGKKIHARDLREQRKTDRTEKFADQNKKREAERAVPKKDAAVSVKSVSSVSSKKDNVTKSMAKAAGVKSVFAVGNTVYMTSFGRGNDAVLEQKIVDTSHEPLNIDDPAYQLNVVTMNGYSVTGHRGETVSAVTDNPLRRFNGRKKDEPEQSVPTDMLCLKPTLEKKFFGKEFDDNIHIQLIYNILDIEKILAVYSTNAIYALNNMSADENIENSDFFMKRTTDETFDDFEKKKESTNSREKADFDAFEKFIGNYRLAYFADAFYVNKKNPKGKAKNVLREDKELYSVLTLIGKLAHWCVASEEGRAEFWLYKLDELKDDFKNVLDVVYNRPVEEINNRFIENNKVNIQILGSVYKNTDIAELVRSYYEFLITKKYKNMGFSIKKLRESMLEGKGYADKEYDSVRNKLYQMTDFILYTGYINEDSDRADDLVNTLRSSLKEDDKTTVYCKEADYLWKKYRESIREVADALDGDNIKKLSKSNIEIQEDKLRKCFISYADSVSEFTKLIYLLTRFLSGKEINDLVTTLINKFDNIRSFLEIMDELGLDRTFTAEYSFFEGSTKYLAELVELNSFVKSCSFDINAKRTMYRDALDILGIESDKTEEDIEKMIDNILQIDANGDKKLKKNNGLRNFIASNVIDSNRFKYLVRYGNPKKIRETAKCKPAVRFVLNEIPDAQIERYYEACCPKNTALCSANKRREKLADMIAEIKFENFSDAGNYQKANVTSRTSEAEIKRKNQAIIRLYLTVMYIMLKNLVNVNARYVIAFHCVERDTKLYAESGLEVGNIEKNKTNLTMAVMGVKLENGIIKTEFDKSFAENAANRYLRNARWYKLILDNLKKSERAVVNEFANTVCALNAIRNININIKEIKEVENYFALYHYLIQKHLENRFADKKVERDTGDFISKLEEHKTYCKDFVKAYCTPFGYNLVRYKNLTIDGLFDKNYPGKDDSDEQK
# Assay details: crRNA (strand 1, pre-loaded); Mg2+; 40 mM Tris-HCl pH 7.5, 150 mM NaCl, 6 mM MgCl2, 1 mM DTT, 0.1% Tween-20, 0.2 mg/ml BSA; 25 C; 10 min per concentration, then washed
# Conditions: tags: His6-TwinStrep-SUMO cleaved; N-terminal SNAP kept (SNAP-Surface 488); label: 3' end held by stalled T7 RNA polymerase
On this scale, pKd is minus log10 of a concentration expressed in M (mol/L).

# Binder, pKd
data = [
    ("target 2 MT 5'PFS AUG 3'PFS CGC (mixed) RNA 1: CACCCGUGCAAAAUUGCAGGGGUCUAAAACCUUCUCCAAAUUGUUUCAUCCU RNA 2: GGGAAUGGAUCCACAUCUACGAAUUCAUGAGGAUGAAACAAUUUGGAGAAGCGCAGAUCGGAAGAGCACACGU", 8.09),
]

The measured pKd associated with target 1 insC 3' of 22,insG 3' of 1 (mixed) RNA 1: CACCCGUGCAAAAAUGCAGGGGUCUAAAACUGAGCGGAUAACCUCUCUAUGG RNA 2: GGGAAUGGAUCCACAUCUACGAAUUCGUACCCAUAGAGAGGUUAUCCGCUCAGCCGAGAUCGGAAGAGCACACGU reads 7.82

The measured pKd associated with target 1 insC 3' of 19,insG 3' of 18 (mixed) RNA 1: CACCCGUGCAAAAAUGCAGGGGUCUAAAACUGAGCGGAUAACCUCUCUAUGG RNA 2: GGGAAUGGAUCCACAUCUACGAAUUCGUACCAUCAGGAGAGGUUAUCCGCUCACCGAGAUCGGAAGAGCACACGU reads 7.05

The measured pKd associated with target 1 MT 5'PFS GUG 3'PFS CUC (mixed) RNA 1: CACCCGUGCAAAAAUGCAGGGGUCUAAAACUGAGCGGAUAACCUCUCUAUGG RNA 2: GGGAAUGGAUCCACAUCUACGAAUUCGUGCCAUAGAGAGGUUAUCCGCUCACUCAGAUCGGAAGAGCACACGU reads 7.71

The measured pKd associated with target 1 U3C,U11C (mixed) RNA 1: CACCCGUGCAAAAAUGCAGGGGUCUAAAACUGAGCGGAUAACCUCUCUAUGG RNA 2: GGGAAUGGAUCCACAUCUACGAAUUCGUACCAUAGAGAGGCUAUCCGCCCACCGAGAUCGGAAGAGCACACGU reads 7.29

The measured pKd associated with target 1 insG 3' of 14,insC 3' of 8 (mixed) RNA 1: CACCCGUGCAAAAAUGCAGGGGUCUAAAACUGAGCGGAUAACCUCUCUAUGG RNA 2: GGGAAUGGAUCCACAUCUACGAAUUCGUACCAUAGAGAGGGUUAUCCCGCUCACCGAGAUCGGAAGAGCACACGU reads 7.39

The measured pKd associated with target 1 G17U (mixed) RNA 1: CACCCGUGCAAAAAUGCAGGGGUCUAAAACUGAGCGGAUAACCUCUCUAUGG RNA 2: GGGAAUGGAUCCACAUCUACGAAUUCGUACCAUAUAGAGGUUAUCCGCUCACCGAGAUCGGAAGAGCACACGU reads 7.77
